Test system: 786-0
Experiment: NCI tumour cell line growth inhibition, 48 h
Active and inactive are the calls of the source. Cut-off read from the data, not from the text of the source: active = GI50 up to about 1.1 µM and inactive = higher.
Classes used: active, inactive

1. Cc1cc(OCc2nc(N)nc(N)c2-c2ccc(Cl)c(Cl)c2)ccc1[N+](=O)[O-]: active
2. COc1cc(O)c2c(c1)OCC(Cc1ccc(O)cc1)C2=O (stereo not drawn): inactive
3. N/C(=N\O)N/N=C/c1cc(I)cc(I)c1O: inactive
4. [BH3-][P+]1(CC[P@@+]([BH3-])(c2ccccc2)c2ccccc2OC)[C@@H](C)[C@@H](O)[C@H](O)[C@@H]1C (stereo partly drawn): inactive
5. CC(=O)NC1C(OCc2ccccc2)OC(CO)C(O)C1OCC(=O)N[C@@H](C)C(=O)N[C@H](CCC(=O)NCCNc1ccc([N+](=O)[O-])c2[nH]c3ccccc3c(=O)c12)C(N)=O (stereo partly drawn): inactive
6. O=[N+]([O-])c1cccc(/C=N/N=c2\ccc3ccccc3[nH]2)c1O: active
7. CN1C(=O)N(C)C(O)C(Cl)(Br)C1=O (stereo not drawn): inactive
8. COc1ccc(C(O)(c2ccccc2)c2nccc3ccccc23)cc1 (stereo not drawn): inactive
9. N=C(N)NS(=O)(=O)c1ccc(NC(=O)c2cccc3c(N)c4ccccc4nc23)cc1: inactive
10. Cn1c(-c2cccs2)cc(-c2ccsc2)c1-c1cccs1: inactive
11. Oc1cc2c(cc1C(c1ccc3c(c1)OCO3)N1CCN(C(c3ccc4c(c3)OCO4)c3cc4c(cc3O)OCO4)CC1)OCO2 (stereo not drawn): inactive
12. C=C1C(OC2O[C@@H]3O[C@@]4(C)CC[C@H]5[C@H](C)CC[C@@H](C2=C)[C@@]35O4)O[C@@H]2O[C@@]3(C)CC[C@H]4[C@H](C)CC[C@@H]1[C@@]24O3 (stereo partly drawn): inactive
13. CC1=C(C(=O)NNS(=O)(=O)c2ccc(C)cc2)CC(C(=O)NNS(=O)(=O)c2ccc(C)cc2)=C(C)N1: inactive
14. O=C(CC(=O)N1N=C(n2ccc3ccccc32)CC1c1ccccc1)Nc1cccc(Cl)c1 (stereo not drawn): inactive
15. COc1nc(C#CC2(O)CCCCC2)nc(OC)n1: inactive
16. COc1ccc2c(c1)[n+]([O-])c(-c1ccc(Cl)c(Cl)c1)c(N)[n+]2[O-]: inactive
17. CC(=N\N)/C(C)=N/N=C(C)/C(C)=N/N=C(C)/C(C)=N/N: inactive
18. CC(=O)C(CN(CC(C)C)CC(C)C)C(c1ccccc1)c1c(O)c2ccccc2oc1=O (stereo not drawn): inactive
